- protocol.summary: pharmacokinetic properties in mouse after single intravenous and oral administration
- Type: in vivo
- particulars: female, plasma, 0.2 mg/kg, PK data in mouse, read-out: Vss
- Source text: The objective of the study was to obtain information on the pharmacokinetic properties of the compounds of the present invention in female Wistar rats/mice following single intravenous and oral administration. […] The concentrations of the compounds in plasma, feces were quantified using an UPLC method with tandem mass spectrometric detection (LC-MS/MS) previously developed at the ‘Institute of Drug Metabolism and Pharmacokinetics’. […]
Recorded Vd determines the group label, using small value (below 0.5 L/kg), mid value (0.5 L/kg to below 1 L/kg), large value (1 L/kg or more)

Request: Form field 'band' for COc1ccc(C2CCOCC2)c2nc(NC(=O)c3ccc(C(=O)N(C)C)cc3)[nH]c12
Response: small value

Request: Form field 'band' for COc1ccc(-c2cnn(C)c2)c2nc(NC(=O)c3ccc(C(=O)N(C)C)cc3)[nH]c12
Response: small value

Request: Form field 'band' for COc1ccc(-c2cnn(C)c2)c2nc(NC(=O)N3CC[C@@]4(CCCOC4)C3)[nH]c12
Response: mid value

Request: Form field 'band' for COc1ccc(-c2ccccc2)c2nc(NC(=O)N3CCC(C)(O)CC3)[nH]c12
Response: mid value

Request: Form field 'band' for COc1ccc(-c2cnn(C)c2)c2nc(NC(=O)c3ccc(CN4CCCC4=O)cc3)[nH]c12
Response: large value

Request: Form field 'band' for COc1ccc(N2CCOCC2)c2nc(NC(=O)c3ccnc(N4CCOCC4)c3)[nH]c12
Response: large value

Request: Form field 'band' for COc1ccc(-c2cnn(C)c2)c2nc(NC(=O)N3CC[C@@]4(CCOC4)C3)[nH]c12
Response: mid value

Request: Form field 'band' for COc1ccc(-c2cnn(C)c2)c2nc(NC(=O)N3CC[C@]4(CCOC4)C3)[nH]c12
Response: small value

Request: Form field 'band' for COc1ccc(N2CCOCC2)c2nc(NC(=O)c3cnn(C)c3)[nH]c12
Response: mid value

Request: Form field 'band' for C#CCC1(O)CCN(C(=O)Nc2nc3c(-c4cnn(C)c4)ccc(OC)c3[nH]2)CC1
Response: large value

Request: Form field 'band' for COc1ccc(-c2cnn(C)c2)c2nc(NC(=O)c3ccnc(N4CC[C@@](C)(O)C4)c3)[nH]c12
Response: large value

Request: Form field 'band' for COc1ccc(C2CCOCC2)c2nc(NC(=O)c3ccc(CN4CCCC4=O)cc3)[nH]c12
Response: large value

###

- study.system: human A1 receptor (Homo sapiens, UniProt P30542)
- Sequence (P30542 whole entry): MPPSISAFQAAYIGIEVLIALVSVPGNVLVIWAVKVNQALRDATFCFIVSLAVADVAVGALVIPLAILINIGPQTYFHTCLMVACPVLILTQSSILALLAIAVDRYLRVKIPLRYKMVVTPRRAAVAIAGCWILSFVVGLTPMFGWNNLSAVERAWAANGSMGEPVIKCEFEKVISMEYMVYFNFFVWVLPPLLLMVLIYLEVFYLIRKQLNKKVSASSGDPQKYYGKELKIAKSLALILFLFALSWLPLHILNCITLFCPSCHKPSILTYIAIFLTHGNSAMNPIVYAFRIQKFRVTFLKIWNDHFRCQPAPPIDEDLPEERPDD
- protocol.summary: functional cAMP (HTRF) assay, recombinant CHO cells expressing human A1 receptor, forskolin, agonist CPA
pIC50: −log10 of the molar value.
attribute.measured: pIC50

Solved cases below.
COc1ccc(-c2cnn(C3CN(C(=O)OC(C)(C)C)C3)c2)c2[nH]c(NC(=O)N3CCC(C)(O)CC3)nc12 [compound 245] ... < 6.00
COc1ccc(-c2ccccc2)c2nc(NC(=O)c3c[nH]cn3)[nH]c12 [compound 253] ... > 6.00
COc1ccc(-c2cnn(C)c2)c2nc(NC(=O)c3ccon3)[nH]c12 [compound 84] ... > 6.00

Now look at this entry.
Request: Can you look up pIC50 on human A1 receptor (Homo sapiens, UniProt P30542) for COc1ccc(-c2ccccc2)c2nc(NC(=O)c3ccc(N4CCOCC4)nc3)[nH]c12 [compound 8] ?
Response: < 6.00

###

- protocol.summary: pharmacokinetic properties in mouse after single intravenous and oral administration
- Type: in vivo
- particulars: PK data in mouse, @0.2 (dose, unit not given)
Reported values of Feces iv for individual entries

COc1ccc(C2CCOCC2)c2nc(NC(=O)c3ccc(C(=O)N(C)C)cc3)[nH]c12 ... 2.5@0.2%
COc1ccc(-c2cnn(C)c2)c2nc(NC(=O)c3ccc(CN4CCCC4=O)cc3)[nH]c12 ... 12.5@0.2%
COc1ccc(-c2cnn(C)c2)c2nc(NC(=O)N3CC[C@@]4(CCCOC4)C3)[nH]c12 ... 9@0.2%
COc1ccc(N2CCOCC2)c2sc(NC(=O)N3CCC(C)(O)CC3)nc12 [Tozadenant, reference compound] ... 23@0.2%
COc1ccc(C2CCOCC2)c2nc(NC(=O)c3ccc(Cn4ccnc4)cc3)[nH]c12 ... 29@0.2%
COc1ccc(-c2cnn(C)c2)c2nc(NC(=O)N3CC[C@]4(CCOC4)C3)[nH]c12 ... 8.6@0.2%

Request: State the recorded Feces iv for this entry: COc1ccc(N2CCOCC2)c2nc(NC(=O)c3ccnc(N4CCOCC4)c3)[nH]c12
Response: 11@0.2%

Request: State the recorded Feces iv for this entry: COc1ccc(N2CCOCC2)c2nc(NC(=O)c3cnn(C)c3)[nH]c12
Response: 5.6@0.2%

###

- study.system: human A3 receptor (Homo sapiens, UniProt P0DMS8)
- Sequence (P0DMS8 whole entry): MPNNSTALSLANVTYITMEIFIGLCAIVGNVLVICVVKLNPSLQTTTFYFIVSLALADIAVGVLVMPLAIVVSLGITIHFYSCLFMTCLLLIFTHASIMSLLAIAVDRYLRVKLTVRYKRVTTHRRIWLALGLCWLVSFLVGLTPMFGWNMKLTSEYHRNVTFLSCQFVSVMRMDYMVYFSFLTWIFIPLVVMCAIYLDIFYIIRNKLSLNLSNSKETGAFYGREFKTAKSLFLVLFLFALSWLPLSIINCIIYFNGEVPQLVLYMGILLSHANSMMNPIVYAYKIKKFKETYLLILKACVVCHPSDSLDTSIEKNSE
- protocol.summary: functional cAMP (HTRF) assay, recombinant CHO cells expressing human A3 receptor, forskolin, agonist IB-MECA
Reported values of IC50 for individual entries

Solved cases below.
COc1ccc(-c2ccccc2)c2nc(NC(=O)c3ccc(Br)nc3)[nH]c12 ... < 0.01 µM
COc1ccc(-c2cnn(C)c2)c2nc(NC(=O)c3ccc4c(c3)CCO4)[nH]c12 ... < 1 µM
COc1ccc(-c2ccc(F)cc2)c2nc(NC(=O)c3cnn(C)c3)[nH]c12 ... < 0.1 µM
COc1ccc(-c2cnn(C)c2)c2nc(NC(=O)c3ccnc(N4CCC(C)(O)CC4)c3)[nH]c12 ... < 1 µM
COc1ccc(C2CCOCC2)c2nc(NC(=O)c3ccc(N4C(=O)CCC4=O)cc3)[nH]c12 ... > 1 µM

Request: State the recorded IC50 for this entry: COc1ccc(-c2ccccc2F)c2nc(NC(=O)c3ccc(C(=O)N(C)C)cc3)[nH]c12
Response: < 1 µM

Request: State the recorded IC50 for this entry: COc1ccc(-c2cnn(C)c2)c2nc(NC(=O)c3ccc(OC(F)(F)F)cc3)[nH]c12
Response: < 1 µM

Request: State the recorded IC50 for this entry: COc1ccc(-c2cnn(C3CCOC3)c2)c2nc(NC(=O)N3CCC(C)(O)CC3)[nH]c12 (centres unmarked)
Response: > 1 µM

###

- study.system: human A1 receptor (Homo sapiens, UniProt P30542)
- protocol.summary: functional cAMP (HTRF) assay, recombinant CHO cells expressing human A1 receptor, forskolin, agonist CPA
pIC50: −log10 of the molar value.
attribute.measured: pIC50

Solved cases below.
COc1ccc(-c2ccccc2)c2nc(NC(=O)c3ccc(CN)cc3)[nH]c12 ... < 6.00
COc1ccc(-c2ccc3cc[nH]c3c2)c2nc(NC(=O)N3CCC(C)(O)CC3)[nH]c12 ... < 6.00
COc1ccc(C2CCOCC2)c2nc(NC(=O)N3CC[C@@]4(CCOC4)C3)[nH]c12 ... < 6.00
COc1ccc(-c2ccc(F)cc2)c2nc(NC(=O)N3CCC(C)(O)CC3)[nH]c12 ... > 6.00
COc1ccc(C2CCOCC2)c2nc(NC(=O)c3ccnc(N4CC[C@]5(CCOC5)C4)c3)[nH]c12 ... < 6.00
COc1ccc(N2CCOCC2)c2nc(NC(=O)c3ccc(O)c(N)c3)[nH]c12 ... < 6.00
COc1ccc(-c2ccccc2)c2nc(NC(=O)c3cnc(C)s3)[nH]c12 ... > 6.00
COc1ccc(-c2cnn(Cc3cccnc3)c2)c2[nH]c(NC(=O)N3CCC(C)(O)CC3)nc12 ... > 6.00

Request: State the recorded pIC50 for this entry: COc1ccc(-c2cnn(C)c2)c2nc(NC(=O)N3CC[C@H](F)C3)[nH]c12
Response: < 6.00

Request: State the recorded pIC50 for this entry: COc1ccc(-c2cnn(C)c2)c2nc(NC(=O)N3CCC(Oc4ccccc4)CC3)[nH]c12
Response: > 6.00

###

- study.system: human A2A receptor (Homo sapiens, UniProt P29274)
- Sequence (P29274 whole entry): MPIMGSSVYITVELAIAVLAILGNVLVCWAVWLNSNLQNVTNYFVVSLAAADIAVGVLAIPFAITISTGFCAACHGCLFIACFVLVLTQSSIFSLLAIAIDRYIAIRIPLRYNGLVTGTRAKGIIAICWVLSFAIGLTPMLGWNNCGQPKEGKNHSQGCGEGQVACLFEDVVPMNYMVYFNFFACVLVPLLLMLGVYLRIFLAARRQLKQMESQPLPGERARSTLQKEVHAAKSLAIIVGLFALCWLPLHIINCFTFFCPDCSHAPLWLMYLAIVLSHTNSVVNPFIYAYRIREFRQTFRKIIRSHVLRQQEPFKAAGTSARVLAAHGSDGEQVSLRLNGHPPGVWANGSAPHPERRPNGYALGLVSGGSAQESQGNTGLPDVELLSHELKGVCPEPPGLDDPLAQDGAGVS
- protocol.summary: functional cAMP (HTRF) assay, recombinant HEK293 cells expressing human A2A receptor, agonist NECA
Reported values of IC50 for individual entries

Solved cases below.
COc1ccc(-c2cnn(-c3ccccn3)c2)c2[nH]c(NC(=O)N3CCC(C)(O)CC3)nc12 [compound 231] ... < 100 nM
COc1ccc(-c2ccc(F)cc2)c2nc(NC(=O)c3ccc(C(=O)N(C)C)cc3)[nH]c12 [compound 316] ... < 10 nM
COc1ccc(-c2cnn(C(F)F)c2)c2nc(NC(=O)N3CCC(C)(O)CC3)[nH]c12 [compound 229] ... < 100 nM

Now look at this entry.
Request: State the recorded IC50 for this entry: COc1ccc(C2CCOCC2)c2nc(NC(=O)C3(C#N)CC3)[nH]c12 [compound 226]
Response: < 100 nM

###

- System: mouse Pan T cells
- protocol.summary: mouse Pan T cell IFN-γ rescue from A2A agonist CGS-21680 (ELISA, 48 h)
- Type: cell-based
- particulars: Mus musculus, T-cell
attribute.measured: pIC50
Keep in mind that pIC50 stands for -log10 of concentration in molar terms.

COc1ccc(-c2cnn(C)c2)c2nc(NC(=O)c3ccc(OC(F)(F)F)cc3)[nH]c12 [compound 94] ... 6.00
COc1ccc(-c2cnn(C)c2)c2nc(NC(=O)c3ccc(C(=O)N(C)C)cc3)[nH]c12 [compound 93] ... 6.46
COc1ccc(-c2cnn(C)c2)c2nc(NC(=O)N3CC[C@@]4(CCCOC4)C3)[nH]c12 [compound 114] ... 6.05

Request: State the recorded pIC50 for this entry: CCNCc1ccc(C(=O)Nc2nc3c(-c4ccccc4)ccc(OC)c3[nH]2)cc1 [compound 11]
Response: 7.12
